target: receptor 5-HT4(c) (Homo sapiens, UniProt Q13639); assay: [3H]GR113808 radioligand binding, membranes of transiently transfected COS-7 cells; set-up: The entire coding region of the cDNAs of 5-HT4(a), 5-HT4(b), 5-HT4(c) and 5-T4(d) was subcloned; expressed in transfected cells; host or cells: COS-7 cells, transient, pRC/CMV vector; cDNA amplified from human brain and ileum RNA; conditions: read-out: Ki, competition for [3H]GR113808 binding
Sequence (Q13639 1-380 isoform Q13639-4): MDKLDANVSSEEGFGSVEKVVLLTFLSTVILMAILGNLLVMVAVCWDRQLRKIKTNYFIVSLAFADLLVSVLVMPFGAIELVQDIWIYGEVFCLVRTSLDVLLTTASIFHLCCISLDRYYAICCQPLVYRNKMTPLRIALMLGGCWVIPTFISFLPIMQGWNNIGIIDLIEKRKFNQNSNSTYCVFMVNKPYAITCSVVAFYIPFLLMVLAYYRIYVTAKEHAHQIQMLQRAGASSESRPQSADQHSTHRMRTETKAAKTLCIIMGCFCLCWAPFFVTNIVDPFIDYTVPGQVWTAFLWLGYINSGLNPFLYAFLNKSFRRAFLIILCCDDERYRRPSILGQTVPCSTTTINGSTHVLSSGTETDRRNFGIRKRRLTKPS
Counter-ions that a name gives are not always drawn.
Please go through the items and note down their pKi.
Numbers only, as −log10 of the molar value.

compound	pKi
COc1cc(N)c(Cl)cc1C(=O)NC1CN2CCC1CC2 (centres unmarked) [Zacopride, hydrochloride]	4.97

Consider now this further compound.
[Q] Requested read-out pKi, target or system receptor 5-HT4(c) (Homo sapiens, UniProt Q13639), entry `COc1cc(N)c(Cl)cc1C(=O)OCCN1C[C@H](C)C[C@H](C)C1`
[A] 9.21

* * *

molecular target: receptor 5-HT4(d) (Homo sapiens); assay: [3H]GR113808 radioligand binding, membranes of transiently transfected COS-7 cells; set-up: The entire coding region of the cDNAs of 5-HT4(a), 5-HT4(b), 5-HT4(c) and 5-T4(d) was subcloned; expressed in transfected cells; host or cells: COS-7 cells, transient, pRC/CMV vector; cDNA amplified from human brain and ileum RNA; conditions: read-out: Ki, competition for [3H]GR113808 binding
Sequence (Q13639 1-360 isoform Q13639-3): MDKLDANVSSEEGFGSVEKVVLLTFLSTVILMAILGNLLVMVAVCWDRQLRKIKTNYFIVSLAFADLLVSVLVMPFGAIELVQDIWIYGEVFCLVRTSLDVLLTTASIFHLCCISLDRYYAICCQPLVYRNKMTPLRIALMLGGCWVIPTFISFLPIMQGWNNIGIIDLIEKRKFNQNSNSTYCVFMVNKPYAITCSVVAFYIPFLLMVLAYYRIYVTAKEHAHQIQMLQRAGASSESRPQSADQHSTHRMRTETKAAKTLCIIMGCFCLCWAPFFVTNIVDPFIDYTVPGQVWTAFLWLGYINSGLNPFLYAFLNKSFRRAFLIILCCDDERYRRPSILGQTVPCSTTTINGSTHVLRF
property.measured: pKi
Numbers only, as −log10 of the molar value.

[Q] Which pKi value is on record for `COc1cc(N)c(Cl)cc1C(=O)OCCN1C[C@H](C)C[C@H](C)C1` ?
[A] 9.39

* * *

Please go through the items and note down their pKi.
molecular target: receptor 5-HT4(d) (Homo sapiens); experiment: [3H]GR113808 radioligand binding, membranes of transiently transfected COS-7 cells; design: The entire coding region of the cDNAs of 5-HT4(a), 5-HT4(b), 5-HT4(c) and 5-T4(d) was subcloned; expressed in transfected cells; host or cells: COS-7 cells, transient, pRC/CMV vector; cDNA amplified from human brain and ileum RNA; conditions: 5-HT4(d), COS-7 membranes, [3H]GR113808 at 50% of Kd; read-out: Ki, competition for [3H]GR113808 binding
Where a name gives a salt, the structure may show the parent alone.
Give bare numbers, as −log10 of the molar value.

Worked examples, 2 compounds total:
compound	pKi
Cn1cc(C(=O)OCC2CCN(CCNS(C)(=O)=O)CC2)c2ccccc21	10.11
COc1ccc2[nH]cc(CCN)c2c1	6.26

[Q] Which pKi value is on record for COc1cc(N)c(Cl)cc1C(=O)NC1CN2CCC1CC2 (stereo not drawn) [Zacopride, hydrochloride] ?
[A] 5.44

* * *

biological target: receptor 5-HT4(d) (Homo sapiens); test: [3H]GR113808 radioligand binding, membranes of transiently transfected COS-7 cells; set-up: The entire coding region of the cDNAs of 5-HT4(a), 5-HT4(b), 5-HT4(c) and 5-T4(d) was subcloned; expressed in transfected cells; host or cells: COS-7 cells, transient, pRC/CMV vector; cDNA amplified from human brain and ileum RNA; conditions: 5-HT4(d), COS-7 membranes, 30 minutes at 25° C.; read-out: Kd, saturation analysis
property.measured: Kd (nM)
One number for each entry, in nM.

[Q] Which Kd value is on record for Cn1cc(C(=O)OCC2CCN(CCNS(C)(=O)=O)CC2)c2ccccc21 [[^3H]GR113808] ?
[A] 0.14
